Tested on: Tov112D
Experiment: Primary qHTS to identify gynecologic anti-cancer compounds using libraries of approved drugs and bioactive compounds (AID 1345084); further: nearly all actives have a fitted effect of over 55% in size
Conditions: Gynecologic cancer cell panel viability, ATPlite luminescence, 48 h; series mostly up to 57.5 µM
Records with an inconclusive call do not appear. Calls of active or inactive are those of the source. The call rests on the fitted dose curve; in most records, active means well fitted cell-killing curve with a large enough effect; inconclusive means small, poorly fitted or top-dose-only effect, or effect the other way; inactive means flat fitted curve, though single readings scatter.
Outcomes: active, inactive

molecule: CCC/C=C\C=C/CCc1cc(O)c([C@@H]2O[C@H](CO)[C@@H](O)[C@H](O)[C@H]2O)c(O)c1C(=O)OC
label-class: inactive
--
molecule: O=C(O)C1=CO[C@@H](O[C@@H]2O[C@H](CO)[C@@H](O)[C@H](O)[C@H]2O)[C@@H]2C(CO)=CC[C@H]12
label-class: inactive
--
molecule: CCCn1ncc(CN2CCCC(C(=O)c3cccc(OC(C)C)c3)C2)c1C (stereo not drawn)
label-class: inactive
--
molecule: O=C(NCCCN1CCC2(CC1)OCc1ccccc12)[C@H]1CCCN1Cc1ccccc1
label-class: inactive
--
molecule: CC(=O)C1=C(O)C=C2Oc3c(C(C)=O)c(O)c(C)c(O)c3[C@]2(C)C1=O
label-class: inactive
--
molecule: CC(C)(C)Sc1c(CC(C)(C)C(=O)O)n(Cc2ccc(Cl)cc2)c2ccc(OCc3ccc4ccccc4n3)cc12
label-class: inactive
--
molecule: CN(C)C(=O)Nc1cccc(-c2ccc(N(C)C)cc2)c1
label-class: inactive
--
molecule: CS(=O)(=O)Nc1ccc2oc3c(OC(F)F)ccc(C(=O)Nc4c(Cl)cncc4Cl)c3c2c1
label-class: inactive
--
molecule: CN(C)C(=O)C(=O)c1cn(C)c2cc(Cl)c(C(=O)N3CCC(Cc4ccc(F)cc4)CC3)cc12
label-class: inactive
--
molecule: O=C(c1ccc(Cl)cc1)N1CCN(c2ccnc3cc(Cl)ccc23)CC1
label-class: inactive
--
molecule: Nc1nc2c(s1)CCN(Cc1ccc(Cl)cc1)CC2
label-class: inactive
--
molecule: C=C1[C@H]2CC[C@H](C(=O)O)[C@@]23CC[C@H](C3)C1(C)C
label-class: inactive
--
molecule: C=CC(C)(O)CC[C@@H]1[C@@]2(C)CCCC(C)(C)C2CC[C@@]1(C)O (stereo partly drawn)
label-class: inactive
--
molecule: CCCCCCOC(=O)/N=C(\N)c1ccc(NCc2nc3cc(C(=O)N(CCC(=O)OCC)c4ccccn4)ccc3n2C)cc1
label-class: inactive
--
molecule: CNC(C)C(=O)NC(C(=O)N1CCCC1C(=O)Nc1snnc1-c1ccccc1)C1CCCCC1 (stereo not drawn)
label-class: inactive
--
molecule: O=C(Nc1ccc(-c2ccnc(Nc3ccc(N4CCOCC4)cc3)n2)cc1)C1CCCN1 (stereo not drawn)
label-class: inactive
--
molecule: N#Cc1ccc(N2N=C3c4ccc(C(=O)O)cc4CC[C@@H]3[C@@H]2C2CCCC2)cc1Cl
label-class: inactive
--
molecule: COC(=O)CC[C@@H](C)C1CCC2C3CCC4C[C@H](OC(C)=O)CCC4(C)C3C[C@H](O)C21C (stereo partly drawn)
label-class: inactive
--
molecule: C=C1CC[C@@H]2[C@](C)(CO)[C@H](O)CC[C@@]2(C)[C@@H]1/C=C/C1=CCOC1=O
label-class: inactive
--
molecule: COc1ccccc1C(=O)Nc1cccc(NC(=O)c2cccc(C)c2)c1
label-class: inactive
--
molecule: c1cc(NC2CCNCC2)nc(-c2cnc3ccccn23)c1
label-class: active
--
molecule: Cc1cc(-c2cnc(N)c3c(-c4ccc5scnc5c4)csc23)n(C)n1
label-class: inactive
--
molecule: Cc1nc(Nc2ccc(F)cc2)nc(N2CCc3ccccc3C2C)c1C (stereo not drawn)
label-class: inactive
--
molecule: CCCC(CCC)C(=O)NCc1ccc2c(cnn2-c2ccccc2OC)c1
label-class: inactive
--
molecule: Fc1ccc(-c2nc(C3CCNCC3)sc2-c2ccnc(NC3CC3)n2)cc1
label-class: inactive
--
molecule: O=C(c1c(F)ccc(NS(=O)(=O)N2CC[C@@H](F)C2)c1F)c1c[nH]c2ncc(-c3cnc(C4CC4)nc3)cc12
label-class: inactive
--
molecule: C=C1C(=O)O[C@H]2C[C@@H](C)[C@@H]3CCC(=O)[C@@]3(C)C[C@H]12
label-class: inactive
--
molecule: C[C@]12CC[C@@H]3c4ccc(O)c(O)c4CC[C@H]3[C@@H]1CCC2=O
label-class: inactive
--
molecule: CC#CCn1c(N2CCCC(N)C2)nc2c1c(=O)n(Cc1nc(C)c3ccccc3n1)c(=O)n2C (stereo not drawn)
label-class: inactive
--
molecule: COc1cc2c(cc1OC)CN(C(=O)/C=C/c1c(-c3ccccc3)n(C)c3ncccc13)CC2
label-class: inactive
--
molecule: C=C1CCC2[C@](C)(CCC[C@@]2(C)C=O)[C@H]1CC/C(C)=C/CO (stereo partly drawn)
label-class: inactive
--
molecule: CNC(=O)c1cc(Oc2ccc(NC(=O)c3cccc(C(F)(F)F)c3)cc2)ccn1
label-class: inactive
--
molecule: C/C(=C\CO[C@@H]1O[C@H](CO[C@H]2OC[C@](O)(CO)[C@H]2O)[C@@H](O)[C@H](O)[C@H]1O)C(C)(C)O
label-class: inactive
--
molecule: CCc1ccccc1OC[C@@H](O)CN[C@H]1CCCc2ccccc21
label-class: inactive
--
molecule: NC(=O)c1cnc(N[C@@H]2CCCC[C@H]2N)nc1Nc1cccc(-n2nccn2)c1
label-class: inactive
--
molecule: COc1cc2ncnc(Nc3ccc(O)c(Br)c3)c2cc1OC
label-class: inactive
--
molecule: CC(F)(F)CN1CCOc2c(nn(-c3ccccc3Cl)c2-c2ccc(Cl)cc2)C1=O
label-class: inactive
--
molecule: Cc1cc(OCCCS(C)(=O)=O)cc(C)c1-c1cccc(COc2ccc3c(c2)OCC3CC(=O)O)c1 (stereo not drawn)
label-class: inactive
